target: G2019S LRRK2 (Homo sapiens, UniProt Q5S007, G2019S); test: DiscoveRx KINOMEscan binding constant (Kd); design: purchased DiscoveRx (KINOMEscan service); host or cells: E. coli BL21-derived host (T7 phage) or HEK-293; settings: numeric value
Sequence (Q5S007 whole entry G2019S): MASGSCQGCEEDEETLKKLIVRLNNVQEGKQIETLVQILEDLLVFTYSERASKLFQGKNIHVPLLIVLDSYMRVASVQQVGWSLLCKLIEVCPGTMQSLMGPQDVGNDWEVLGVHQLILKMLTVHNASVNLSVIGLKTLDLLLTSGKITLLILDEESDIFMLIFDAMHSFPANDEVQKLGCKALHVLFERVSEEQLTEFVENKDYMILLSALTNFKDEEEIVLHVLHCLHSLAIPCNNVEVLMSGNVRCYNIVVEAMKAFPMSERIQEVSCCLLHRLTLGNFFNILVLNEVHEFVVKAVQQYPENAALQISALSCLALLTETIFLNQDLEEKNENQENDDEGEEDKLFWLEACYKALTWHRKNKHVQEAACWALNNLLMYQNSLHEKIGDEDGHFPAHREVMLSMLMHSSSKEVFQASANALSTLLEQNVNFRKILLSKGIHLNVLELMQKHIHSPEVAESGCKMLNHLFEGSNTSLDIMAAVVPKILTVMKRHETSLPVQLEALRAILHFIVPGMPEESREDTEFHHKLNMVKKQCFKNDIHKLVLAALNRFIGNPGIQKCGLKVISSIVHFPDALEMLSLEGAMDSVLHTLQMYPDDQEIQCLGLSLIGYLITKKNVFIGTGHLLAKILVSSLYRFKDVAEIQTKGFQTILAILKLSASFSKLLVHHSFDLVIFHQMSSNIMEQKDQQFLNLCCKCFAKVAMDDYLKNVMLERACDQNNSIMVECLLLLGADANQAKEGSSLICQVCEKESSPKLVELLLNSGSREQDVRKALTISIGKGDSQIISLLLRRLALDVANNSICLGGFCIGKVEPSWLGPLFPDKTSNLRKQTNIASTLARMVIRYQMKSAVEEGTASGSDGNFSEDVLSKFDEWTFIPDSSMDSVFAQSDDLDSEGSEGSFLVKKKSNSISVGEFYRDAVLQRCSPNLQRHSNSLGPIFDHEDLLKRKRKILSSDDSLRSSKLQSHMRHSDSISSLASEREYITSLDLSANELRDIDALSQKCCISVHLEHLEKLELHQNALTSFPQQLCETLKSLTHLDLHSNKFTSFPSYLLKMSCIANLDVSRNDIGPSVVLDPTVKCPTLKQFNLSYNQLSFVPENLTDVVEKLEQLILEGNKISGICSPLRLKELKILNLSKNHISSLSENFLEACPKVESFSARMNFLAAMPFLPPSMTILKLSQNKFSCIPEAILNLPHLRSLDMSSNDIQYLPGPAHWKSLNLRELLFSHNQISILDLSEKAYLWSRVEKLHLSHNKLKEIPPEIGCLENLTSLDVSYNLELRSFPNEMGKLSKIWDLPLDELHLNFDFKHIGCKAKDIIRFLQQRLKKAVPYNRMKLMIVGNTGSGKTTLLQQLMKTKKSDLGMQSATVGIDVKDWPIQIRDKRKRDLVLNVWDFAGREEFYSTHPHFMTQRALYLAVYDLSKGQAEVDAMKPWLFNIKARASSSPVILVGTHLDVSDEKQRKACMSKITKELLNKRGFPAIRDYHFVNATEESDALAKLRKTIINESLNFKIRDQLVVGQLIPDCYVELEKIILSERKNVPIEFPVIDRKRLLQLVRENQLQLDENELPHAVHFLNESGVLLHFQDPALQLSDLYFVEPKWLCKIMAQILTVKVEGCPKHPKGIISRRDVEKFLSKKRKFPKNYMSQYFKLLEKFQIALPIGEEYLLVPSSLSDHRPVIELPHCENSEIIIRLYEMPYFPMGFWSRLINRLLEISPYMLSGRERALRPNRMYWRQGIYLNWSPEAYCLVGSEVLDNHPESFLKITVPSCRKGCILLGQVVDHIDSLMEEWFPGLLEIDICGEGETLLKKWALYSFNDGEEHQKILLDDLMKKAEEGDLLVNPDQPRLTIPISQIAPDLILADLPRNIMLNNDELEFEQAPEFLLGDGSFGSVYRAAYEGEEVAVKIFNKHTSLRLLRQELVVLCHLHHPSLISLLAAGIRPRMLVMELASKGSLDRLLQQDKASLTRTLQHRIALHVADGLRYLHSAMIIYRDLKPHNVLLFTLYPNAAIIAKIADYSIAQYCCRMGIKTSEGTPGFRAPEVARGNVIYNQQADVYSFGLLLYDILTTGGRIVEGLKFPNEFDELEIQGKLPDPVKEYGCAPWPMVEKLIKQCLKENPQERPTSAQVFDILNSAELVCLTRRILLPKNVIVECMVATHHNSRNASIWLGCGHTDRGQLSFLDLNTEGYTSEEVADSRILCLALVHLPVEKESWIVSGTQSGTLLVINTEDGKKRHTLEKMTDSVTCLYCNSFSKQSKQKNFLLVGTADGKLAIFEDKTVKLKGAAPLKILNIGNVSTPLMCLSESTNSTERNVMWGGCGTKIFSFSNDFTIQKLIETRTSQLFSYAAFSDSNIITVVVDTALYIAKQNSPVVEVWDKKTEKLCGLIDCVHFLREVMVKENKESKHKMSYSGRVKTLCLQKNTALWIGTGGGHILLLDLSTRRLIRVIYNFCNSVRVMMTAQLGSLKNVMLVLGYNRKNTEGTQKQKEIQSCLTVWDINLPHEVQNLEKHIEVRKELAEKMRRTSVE
quantityMeasured: pKd
Remember the convention: pKd equals -log10 of concentration in molar.

CC(C)Oc1ccc2c(c1)/C(=C/c1cnc(CN3CCOCC3)[nH]1)C(=O)N2; 6.38
O=C1Nc2ccc(Cl)cc2/C1=C/c1cnc(C2CCN(CCF)CC2)[nH]1; 6.82
CC(C)Oc1cc2c(cc1F)NC(=O)/C2=C\c1cnc(C2CCN(CCF)CC2)[nH]1; 7.47
CC(C)Oc1ccc2c(c1)/C(=C/c1cnc(C3CCN(CCF)CC3)[nH]1)C(=O)N2; 7.37
CC(C)Oc1cc2c(cc1F)NC(=O)/C2=C\c1cnc(C2CCOCC2)[nH]1; 7.60

Recorded pKd of `CC(C)Oc1ccc2c(c1)/C(=C/c1cnc(C3CCOCC3)[nH]1)C(=O)N2` , please.
7.55
